system: WT/R232 STING protein (Homo sapiens, UniProt Q86WV6, H232R)
Sequence (Q86WV6 whole entry H232R): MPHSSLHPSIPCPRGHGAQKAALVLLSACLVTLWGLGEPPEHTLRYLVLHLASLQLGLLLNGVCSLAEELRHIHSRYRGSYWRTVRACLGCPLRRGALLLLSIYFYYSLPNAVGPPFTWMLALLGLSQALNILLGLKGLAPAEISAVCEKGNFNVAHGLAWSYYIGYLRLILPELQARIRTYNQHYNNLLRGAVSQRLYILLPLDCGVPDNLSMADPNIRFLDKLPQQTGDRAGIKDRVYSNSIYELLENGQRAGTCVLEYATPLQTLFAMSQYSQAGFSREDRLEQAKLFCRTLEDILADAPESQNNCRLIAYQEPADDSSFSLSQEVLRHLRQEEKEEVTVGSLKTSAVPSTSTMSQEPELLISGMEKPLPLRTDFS
testDetails: Luciferase reporter assay in HEK293T-hSTING-Luciferase cells, WT/R232
recordedConditions: 20 hr stimulation, read-out: R232 Activity (EC50 range)
pEC50: −log10 of the molar value.
Recorded pEC50 for the following compounds

Below, each entry is followed by its recorded pEC50 result.
smilesEntry | system | pEC50
O=C(NCc1ccco1)c1ccc2c(c1)N(Cc1cc(F)ccc1Cl)C(=O)CS2 | WT/R232 STING protein (Homo sapiens, UniProt Q86WV6, H232R) | 5.00 to 6.00
O=C(NCc1ccco1)c1ccc2c(c1)N(Cc1ccccc1F)CCS2 | WT/R232 STING protein (Homo sapiens, UniProt Q86WV6, H232R) | < 5.00

Turning to the following compound.
Name the recorded pEC50 for `CC1(C)Sc2ccc(C(=O)NCc3cc4ccccc4o3)cc2N(Cc2ccccc2F)C1=O` .
5.00 to 6.00

====

Measured pEC50 of individual entries
system: WT/R232 STING protein (Homo sapiens, UniProt Q86WV6, H232R)
testDetails: Luciferase reporter assay in HEK293T-hSTING-Luciferase cells, WT/R232
recordedConditions: 20 hr stimulation, read-out: R232 Activity (EC50 range)
From the text: • a) Stable STING expressing cells—Stable HEK293T STING-expressing cell lines were generated using plasmids purchased from Invivogen, Calif., USA, that contain STING cDNA cloned into the pUNO-1 vector under hEF1-HTLV promoter and containing the Blasticidin selection cassette. […]
pEC50: −log10 of the molar value.

Illustrative cases are given below, each with its answer.
molecule | pEC50
COc1ccc(CCNC(=O)c2ccc3c(c2)N(Cc2ccccc2)C(=O)CS3)cc1OC [Example 171] | < 5.00
CC1Oc2ncc(C(=O)NCc3c(F)cc(F)cc3F)cc2N(Cc2cc(F)cc(F)c2)C1=O (centres unmarked) [Example 240] | 5.00 to 6.00
CC1Oc2ccc(C(=O)NCc3c(F)cc(F)cc3F)cc2N(Cc2cc(F)cc(F)c2)C1=O (centres unmarked) [Example 232] | > 6.00

Form field: pEC50 recorded for CC1Sc2ccc(C(=O)NCc3cc4ccccc4o3)cc2N(Cc2cc(F)cc(F)c2)C1=O (centres unmarked) [Example 149] with WT/R232 STING protein (Homo sapiens, UniProt Q86WV6, H232R) (enter value)
> 6.00

====

system: hSTING(H232) (Homo sapiens)
testDetails: Luciferase reporter assay in HEK293T-hSTING-Luciferase cells, H232 polymorph
recordedConditions: 20 hr stimulation, read-out: H232 activity (EC50 range)
// values below are reported EC50

What EC50 value was documented for this compound, C=CCC1Sc2ccc(C(=O)NCc3c(F)cc(F)cc3F)cc2N(Cc2c(F)cccc2Cl)C1=O (stereo not shown) ?
1000 to 10000 nM

====

system: hSTING(H232) (Homo sapiens, UniProt Q86WV6)
Sequence (Q86WV6 whole entry): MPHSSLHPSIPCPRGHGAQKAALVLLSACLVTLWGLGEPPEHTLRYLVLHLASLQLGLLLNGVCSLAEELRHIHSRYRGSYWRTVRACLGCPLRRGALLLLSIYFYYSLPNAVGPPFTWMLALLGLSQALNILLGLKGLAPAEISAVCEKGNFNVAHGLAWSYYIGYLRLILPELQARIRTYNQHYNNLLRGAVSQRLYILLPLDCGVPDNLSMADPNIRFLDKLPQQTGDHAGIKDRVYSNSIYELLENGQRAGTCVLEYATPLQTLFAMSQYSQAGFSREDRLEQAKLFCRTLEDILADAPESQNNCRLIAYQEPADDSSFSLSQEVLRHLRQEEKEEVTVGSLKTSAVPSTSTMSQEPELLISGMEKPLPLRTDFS
testDetails: Luciferase reporter assay in HEK293T-hSTING-Luciferase cells, H232 polymorph
recordedConditions: 20 hr stimulation, read-out: H232 activity (EC50 range)
pEC50: −log10 of the molar value.
This listing pairs molecules with measured pEC50.

molecule | pEC50
CC1Sc2ccc(C(=O)NCc3cc4ccccc4o3)nc2N(Cc2c(F)cccc2Cl)C1=O (stereo not drawn) | 5.00 to 6.00
CC1Sc2ccc(C(=O)NCc3ccco3)cc2N(Cc2cc(F)cc(F)c2)C1=O (stereo not drawn) | 5.00 to 6.00
O=C(NCc1ccccc1)c1ccc2c(c1)N(Cc1ccccc1)C(=O)CS2 | 5.00 to 6.00
CC1Sc2ccc(C(=O)NCc3c(F)cc(F)cc3F)cc2N(Cc2cnn(C)c2)C1=O (stereo not drawn) | 5.00 to 6.00
Cc1cc(CN2C(=O)CSc3ccc(C(=O)NCc4ccco4)cc32)cc(C(F)(F)F)c1 | < 5.00

Below: the item to evaluate.
Would you kindly share the measured pEC50 for CC1Sc2ncc(C(=O)NCc3cc4ccccc4o3)cc2N(Cc2c(F)cccc2Cl)C1=O (stereo not drawn) ?
> 6.00

====

system: WT/R232 STING protein (Homo sapiens, UniProt Q86WV6, H232R)
testDetails: Luciferase reporter assay in HEK293T-hSTING-Luciferase cells, WT/R232
recordedConditions: 20 hr stimulation, read-out: R232 Activity (EC50 range)
pEC50: −log10 of the molar value.
# pEC50 annotations

Below are worked cases with known answers.
compound | pEC50
CC(NC(=O)c1ccc2c(c1)N(Cc1ccc(Cl)cc1)C(=O)CS2)c1ccccc1 (centres unmarked) | < 5.00
Cc1ccc(CNC(=O)c2ccc3c(n2)N(Cc2cccc(C(N)=O)c2)C(=O)C(C)S3)o1 (centres unmarked) | 5.00 to 6.00
O=C(NCc1ccc(F)cc1)c1ccc2c(c1)N(Cc1c(F)cccc1Cl)C(=O)CS2 | 5.00 to 6.00

Give its pEC50 value. Item: `O=C(NCc1c(F)cc(F)cc1F)c1cc(CCO)c2c(c1)N(Cc1ccc(F)cc1)C(=O)CS2`
< 5.00

I have this compound here, `O=C(NCC1CCCCC1)c1ccc2c(c1)N(Cc1ccccc1F)C(=O)CS2` , and I need its recorded pEC50.
5.00 to 6.00

# lookup: pEC50 of C[C@H]1Oc2ccc(C(=O)NCc3c(F)cc(F)cc3F)cc2N(Cc2cc(F)cc(F)c2)C1=O [Example 233]
> 6.00

# lookup: pEC50 of CC1Sc2ccc(C(=O)NCc3c(F)cc(F)cc3F)cc2N(Cc2cnn(C)c2)C1=O (centres unmarked)
5.00 to 6.00

Name the reported pEC50 value associated with the compound `COc1cc(F)c(CN2C(=O)CSc3ccc(C(=O)NCc4c(F)cc(F)cc4F)cc32)c(F)c1`
> 6.00

Please report the recorded pEC50 for CC1Sc2ncc(C(=O)NCc3c(F)cc(F)cc3F)cc2N(Cc2cc(F)cc(F)c2)C1=O (centres unmarked) .
> 6.00

Which pEC50 is listed for `O=C(NCc1cnccn1)c1ccc2c(c1)N(Cc1ccccc1)C(=O)CS2` ?
< 5.00

Which pEC50 value belongs to `O=C(NCc1ccco1)c1ccc2c(c1)N(Cc1c(F)cccc1Cl)C(=O)CO2` ?
< 5.00

Please report the recorded pEC50 for `O=C(NCc1cccc(Cl)c1Cl)c1ccc2c(c1)N(Cc1ccccc1)C(=O)CS2` .
< 5.00

Tell me the measured pEC50 of CCCC1Sc2ccc(C(=O)NCc3c(F)cc(F)cc3F)cc2N(Cc2c(F)cccc2Cl)C1=O (centres unmarked) , please.
> 6.00

====

system: hSTING(HAQ) (Homo sapiens, UniProt Q86WV6, G230A/H232R/R293Q/R71H)
Sequence (Q86WV6 whole entry R71H/G230A/H232R/R293Q): as the sequence (Q86WV6 whole entry H232R) above, with R71H, G230A, R293Q counted along it
testDetails: Luciferase reporter assay in HEK293T-hSTING-Luciferase cells, HAQ polymorph
recordedConditions: 20 hr stimulation, read-out: HAQ activity (EC50 range)
A collection of compounds and their measured EC50

compound | measuredResult
C[C@@H]1Oc2ccc(C(=O)NCc3cc4ccccc4o3)cc2N(Cc2cc(F)cc(F)c2)C1=O | 1 to 10 µM

Consider the compound C=CCC1Sc2ccc(C(=O)NCc3c(F)cc(F)cc3F)cc2N(Cc2c(F)cccc2Cl)C1=O (stereo not shown) and give its measured EC50.
1 to 10 µM

Recorded EC50 for `O=C(NCc1ccc(F)cc1F)c1ccc2c(n1)N(Cc1cc(F)cc(F)c1)C(=O)CC2` , please?
> 10 µM

State the recorded EC50 for this entry: `O=C(NCc1ccco1)c1ccc2c(c1)N(Cc1ccc(F)cc1)C(=O)CS2`
> 10 µM

Requested read-out: EC50. Entry: `O=C(NCc1ccco1)c1ccc2c(c1)N(Cc1c(Cl)cccc1Cl)C(=O)CS2`
> 10 µM

Entry `CC1(C)Sc2ccc(C(=O)NCc3cc4ccccc4o3)cc2N(Cc2ccccc2F)C1=O` : reported EC50 = ?
1 to 10 µM

For the compound shown here, `CC1(C)Sc2ccc(C(=O)NCC3CCCCC3)cc2N(Cc2ccccc2F)C1=O` , give the reported EC50.
> 10 µM

Reported EC50 for Cc1ccc(CNC(=O)c2ccc3c(n2)N(Cc2c(F)cccc2Cl)C(=O)C(C)S3)o1 (stereo not shown) : what is it?
1 to 10 µM

Need EC50, item Cc1ccc(CNC(=O)c2ccc3c(n2)N(Cc2cc(F)cc(F)c2)C(=O)C(C)S3)o1 (stereo not shown) [Example 198]
< 1 µM

Entry `O=C(NCc1ccc(F)cc1F)c1ccc2c(c1)N(Cc1c(F)cccc1Cl)C(=O)CS2` has what EC50?
1 to 10 µM

====

system: hSTING(HAQ) (Homo sapiens, UniProt Q86WV6, G230A/H232R/R293Q/R71H)
Construct: host or cells: HEK293T
testDetails: Luciferase reporter assay in HEK293T-hSTING-Luciferase cells, HAQ polymorph
Assay type: cell-based
recordedConditions: 20 hr stimulation, read-out: HAQ activity (EC50 range)
pEC50: −log10 of the molar value.
Measured pEC50, listed per entry for reference.

Consider the worked cases shown below.
compound | system | measuredResult
C[C@H]1Oc2ccc(C(=O)NCc3c(F)cc(F)cc3F)cc2N(Cc2cc(F)cc(F)c2)C1=O [Example 233] | hSTING(HAQ) (Homo sapiens, UniProt Q86WV6, G230A/H232R/R293Q/R71H) | 5.00 to 6.00
CC1Sc2ccc(C(=O)NCc3c(F)cc(F)cc3F)cc2N(Cc2cnn(C)c2)C1=O (stereo not drawn) | hSTING(HAQ) (Homo sapiens, UniProt Q86WV6, G230A/H232R/R293Q/R71H) | 5.00 to 6.00
CC1Sc2ncc(C(=O)NCc3c(F)cc(F)cc3F)cc2N(Cc2c(F)cccc2Cl)C1=O (stereo not drawn) | hSTING(HAQ) (Homo sapiens, UniProt Q86WV6, G230A/H232R/R293Q/R71H) | > 6.00
CC1Sc2ccc(C(=O)NCc3c(F)cc(F)cc3F)cc2N(Cc2cc(F)cc(F)c2)C1=O (stereo not drawn) [Example 148] | hSTING(HAQ) (Homo sapiens, UniProt Q86WV6, G230A/H232R/R293Q/R71H) | > 6.00
CC1Sc2ccc(C(=O)NCc3cc4ccccc4o3)nc2N(Cc2c(F)cccc2Cl)C1=O (stereo not drawn) | hSTING(HAQ) (Homo sapiens, UniProt Q86WV6, G230A/H232R/R293Q/R71H) | 5.00 to 6.00
O=C(NCc1c(F)cc(F)cc1F)c1ccc2c(c1)N(C(=O)c1c(F)cccc1Cl)CCS2 | hSTING(HAQ) (Homo sapiens, UniProt Q86WV6, G230A/H232R/R293Q/R71H) | < 5.00
O=C(NCc1cc2ccccc2o1)c1ccc2c(n1)N(Cc1cc(F)cc(F)c1)C(=O)CS2 | hSTING(HAQ) (Homo sapiens, UniProt Q86WV6, G230A/H232R/R293Q/R71H) | 5.00 to 6.00
O=C(NCc1c(F)cccc1F)c1ccc2c(c1)N(Cc1c(F)cccc1Cl)C(=O)CS2 | hSTING(HAQ) (Homo sapiens, UniProt Q86WV6, G230A/H232R/R293Q/R71H) | 5.00 to 6.00
CC1Sc2ccc(C(=O)NCc3c(F)cc(F)cc3F)cc2N(Cc2cc(F)cc(F)c2)C1=O (stereo not drawn) [Example 145] | hSTING(HAQ) (Homo sapiens, UniProt Q86WV6, G230A/H232R/R293Q/R71H) | > 6.00
Cc1cc(CN2C(=O)C(C)Sc3ccc(C(=O)NCc4c(F)cc(F)cc4F)cc32)on1 (stereo not drawn) | hSTING(HAQ) (Homo sapiens, UniProt Q86WV6, G230A/H232R/R293Q/R71H) | 5.00 to 6.00

Fill in: pEC50 of CC1Sc2ccc(C(=O)NCc3c(F)cc(F)cc3F)cc2N(Cc2cccc(C(N)=O)c2)C1=O (stereo not drawn) is ___
< 5.00

Can you share its pEC50? I mean this compound: CC1Sc2ccc(C(=O)NCc3c(F)cc(F)cc3F)cc2N(Cc2c(F)cccc2Cl)C1=O (stereo not drawn)
> 6.00

What does the record list as pEC50 for `Cc1cc(CN2C(=O)CSc3ccc(C(=O)NCc4ccco4)cc32)cc(C(F)(F)F)c1` ?
< 5.00

Look up pEC50: `O=C(NCc1ccco1)c1ccc2c(c1)N(Cc1c(F)cccc1Cl)C(=O)CS2`
< 5.00

Which pEC50 reading was recorded for the compound `O=C(NCc1cc2ccccc2o1)c1ccc2c(c1)N(Cc1ccccc1)C(=O)CS2` ?
5.00 to 6.00
